Data credit: paper PMC6731595

Item-by-item account of selectivity RPA/ hMcm10
- assay system: human RPA70AB (A and B DNA binding domains of RPA70) (Homo sapiens, UniProt P27694)
- Construct: recombinant human RPA70AB (181-422) in a pSV281 vector; 6xHis (TEV site) (N, cleaved yes); made in house; host or cells: Escherichia coli BL21(DE3)
- Sequence (P27694 181-422): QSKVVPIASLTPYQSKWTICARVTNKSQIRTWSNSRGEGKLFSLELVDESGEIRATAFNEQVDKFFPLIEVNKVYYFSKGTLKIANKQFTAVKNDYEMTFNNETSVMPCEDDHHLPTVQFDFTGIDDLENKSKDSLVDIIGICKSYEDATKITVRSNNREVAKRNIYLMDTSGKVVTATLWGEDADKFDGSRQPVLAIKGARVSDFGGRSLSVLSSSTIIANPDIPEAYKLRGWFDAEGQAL
- assay info: Fluorescence polarization competition assay, displacement of 5′-6FAM ssDNA probe from RPA70AB
- details: ratio of hRPA70AB Ki2 to hMcm10-ID Ki (FP)
Counter-ions that a name gives are not always drawn.
Could you keep your reply to the number by itself?

Some solved cases for reference:
>>> readout_value("O=C(Nc1cc(C(=O)Nc2ccc(S(=O)(=O)O)cc2S(=O)(=O)O)cc(C(=O)Nc2ccc(S(=O)(=O)O)cc2S(=O)(=O)O)c1)Nc1cc(C(=O)Nc2ccc(S(=O)(=O)O)cc2S(=O)(=O)O)cc(C(=O)Nc2ccc(S(=O)(=O)O)cc2S(=O)(=O)O)c1 [NF449]")
32
>>> readout_value("Cc1ccc(C(=O)Nc2ccc(S(=O)(=O)O)c3cc(S(=O)(=O)O)cc(S(=O)(=O)O)c23)cc1NC(=O)c1cccc(NC(=O)Nc2cccc(C(=O)Nc3cc(C(=O)Nc4ccc(S(=O)(=O)O)c5cc(S(=O)(=O)O)cc(S(=O)(=O)O)c45)ccc3C)c2)c1 [suramin, suramin sodium salt]")
3
>>> readout_value("O=C(Nc1cc(C(=O)Nc2ccc(S(=O)(=O)O)cc2)cc(C(=O)Nc2ccc(S(=O)(=O)O)cc2)c1)Nc1cc(C(=O)Nc2ccc(S(=O)(=O)O)cc2)cc(C(=O)Nc2ccc(S(=O)(=O)O)cc2)c1 [NF110]")
10
>>> readout_value("O=C(Nc1cccc(C(=O)Nc2cc(C(=O)Nc3ccc(S(=O)(=O)O)c4cc(S(=O)(=O)O)cc(S(=O)(=O)O)c34)ccc2F)c1)Nc1cccc(C(=O)Nc2cc(C(=O)Nc3ccc(S(=O)(=O)O)c4cc(S(=O)(=O)O)cc(S(=O)(=O)O)c34)ccc2F)c1 [NF157]")
11

For O=C(Nc1cccc(C(=O)Nc2ccc(S(=O)(=O)O)c3cc(S(=O)(=O)O)cc(S(=O)(=O)O)c23)c1)Nc1cccc(C(=O)Nc2ccc(S(=O)(=O)O)c3cc(S(=O)(=O)O)cc(S(=O)(=O)O)c23)c1 [NF023] the compound record lists selectivity RPA/ hMcm10 as 6
